# key: entry, value: CL
Assay: Intrinsic clearance in rat microsomes
Format: ADME, Microsome
Give just the number in mL/min/g; leave the unit off.

Form: molecule = O=C(CN(CC1CCC1)C(=O)c1ccc(-c2ccccn2)cc1)Nc1cc(F)cc(F)c1 ; CL = 4.8

* * *

# key: entry, value: Kp
Experiment: Ratio of drug level in brain to blood in rat
Assay type: ADME, tissue-based
Conditions: read-out: BBR
Just the number, please, no unit attached.

O=C(CN(C(=O)c1ccc(-c2ccccn2)cc1)C1CCOCC1)Nc1cc(F)cc(F)c1 ... 0.2

Now look at this entry.
Form: compound = O=C(CN(C(=O)c1ccc(-c2ccccn2)cc1)C1CCCOC1)Nc1cc(F)cc(F)c1 (racemic) ; Kp = 0.2

* * *

Assay: Oral bioavailability in rat
Format: ADME, organism-based
Conditions: in vivo
readout: bioavailability (%)
Give just the number in %; leave the unit off.

O=C(CN(C(=O)c1ccc(-c2ccccn2)cc1)C1CCCOC1)Nc1cc(F)cc(F)c1 (racemic) ... 15

Form: molecule = O=C(CN(C(=O)c1ccc(-c2ccccn2)cc1)C1CCOCC1)Nc1cc(F)cc(F)c1 ; bioavailability = 25

* * *

Assay: Intrinsic clearance in human microsomes
Type: ADME, Microsome
Assign class by CL: not lower than 3 mL/min/g means class 1; lower than 3 mL/min/g means class 0.

Prompt: # bool: CL of CC(C)N(CC(=O)Nc1cc(F)cc(F)c1)C(=O)c1ccc(-c2ccccn2)cc1 >= 3 mL/min/g
Completion: class 0

Prompt: # bool: CL of O=C(CN(C(=O)c1ccc(-c2ccccn2)cc1)C1CCOC1)Nc1cc(F)cc(F)c1 (centres undefined) >= 3 mL/min/g
Completion: class 1

Prompt: # bool: CL of CC(C)CN(CC(=O)Nc1cc(F)cc(F)c1)C(=O)c1ccc(-c2ccccn2)cc1 >= 3 mL/min/g
Completion: class 0

Prompt: # bool: CL of O=C(CN(C(=O)c1ccc(-c2ccccn2)cc1)C1CCOCC1)Nc1cc(F)cc(F)c1 >= 3 mL/min/g
Completion: class 0

Prompt: # bool: CL of O=C(CN(C(=O)c1ccc(-c2ccccn2)cc1)C1CCCOC1)Nc1cc(F)cc(F)c1 (racemic) >= 3 mL/min/g
Completion: class 0

Prompt: # bool: CL of O=C(CN(C(=O)c1ccc(-n2ccnc2)cc1)C1CCCCC1)Nc1cc(F)cc(F)c1 >= 3 mL/min/g
Completion: class 1

Prompt: # bool: CL of COCCN(CC(=O)Nc1cc(F)cc(F)c1)C(=O)c1ccc(-c2ccccn2)cc1 >= 3 mL/min/g
Completion: class 0

Prompt: # bool: CL of O=C(CN(C(=O)c1ccc(-c2ccccn2)cc1)C1CCCC1)Nc1cc(F)cc(F)c1 >= 3 mL/min/g
Completion: class 0

Prompt: # bool: CL of O=C(CN(CC1CCC1)C(=O)c1ccc(-c2ccccn2)cc1)Nc1cc(F)cc(F)c1 >= 3 mL/min/g
Completion: class 0

Prompt: # bool: CL of CCC(COC)N(CC(=O)Nc1cc(F)cc(F)c1)C(=O)c1ccc(-c2ccccn2)cc1 (centres undefined) >= 3 mL/min/g
Completion: class 1

Prompt: # bool: CL of O=C(CN(C(=O)c1ccc(-c2ccccn2)cc1)C1CCCCC1)Nc1cc(F)cc(F)c1 >= 3 mL/min/g
Completion: class 1

Prompt: # bool: CL of O=C(CN(CC1CC1)C(=O)c1ccc(-c2ccccn2)cc1)Nc1cc(F)cc(F)c1 >= 3 mL/min/g
Completion: class 0

Prompt: # bool: CL of COCC(C)N(CC(=O)Nc1cc(F)cc(F)c1)C(=O)c1ccc(-c2ccccn2)cc1 (centres undefined) >= 3 mL/min/g
Completion: class 1

Prompt: # bool: CL of CCC(C)N(CC(=O)Nc1cc(F)cc(F)c1)C(=O)c1ccc(-c2ccccn2)cc1 (centres undefined) >= 3 mL/min/g
Completion: class 1

* * *

Assay: Intrinsic clearance in rat microsomes
Format: ADME, Microsome
readout: CL (mL/min/g)
Give just the number in mL/min/g; leave the unit off.

Recorded results for 3 compounds are shown here.
O=C(CN(C(=O)c1ccc(-c2ccccn2)cc1)C1CCCCC1)Nc1cc(F)cc(F)c1 ... 15.4
COCC(C)N(CC(=O)Nc1cc(F)cc(F)c1)C(=O)c1ccc(-c2ccccn2)cc1 (centres undefined) ... 4.2
O=C(CN(C(=O)c1ccc(-c2ccccn2)cc1)C1CCCC1)Nc1cc(F)cc(F)c1 ... 3.7

Now look at this entry.
Form: compound = O=C(CN(C(=O)c1ccc(-n2ccnc2)cc1)C1CCCCC1)Nc1cc(F)cc(F)c1 ; CL = 1.2
